- testDetails: small-molecule microarray binders of probe aLefty2, primary screen, biochemical, biotinylated probe, 635/667 nm fluorescence (AID 1094);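 further: score merges spot fluorescence near 667 nm with spot signal-to-noise ratio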
- testParameters: higher = more signal

molecule	composite z-score
CN1C(=O)C2C=CC(C(O)c3ccc(I)cc3)N(N(c3ccccc3)c3ccccc3)C2C1=O (stereo not drawn)	0.17
O=C1O[C@H](c2ccccc2)[C@H](c2ccccc2)N2[C@H]1[C@@H](C(=O)N1CCN(c3ncccn3)CC1)[C@]1(C(=O)Nc3ccc(C#CC4(O)CCCCCC4)cc31)[C@H]2c1ccc(O)cc1	-0.209
C=CCNC(=O)[C@H]1[C@@H]2C(=O)O[C@@H](c3ccccc3)[C@@H](c3ccccc3)N2[C@@H](c2ccc(OCCO)cc2)[C@]12C(=O)Nc1ccc(C#Cc3ccc(OC)cc3)cc12	0.326
